Hey, just so you know, these numbers are from patent US10562912B2.

target: STAT3 (Homo sapiens, UniProt P40763); construct: plasmid pSTAT3-TA-luc), which contains a stably operating STAT3 promoter; endogenous in cells; test: STAT3 reporter gene assay (luciferase), LNCaP stable cell line (pSTAT3-TA-luc), IL-6 stimulation; assay type: cell-based
Sequence (P40763 whole entry): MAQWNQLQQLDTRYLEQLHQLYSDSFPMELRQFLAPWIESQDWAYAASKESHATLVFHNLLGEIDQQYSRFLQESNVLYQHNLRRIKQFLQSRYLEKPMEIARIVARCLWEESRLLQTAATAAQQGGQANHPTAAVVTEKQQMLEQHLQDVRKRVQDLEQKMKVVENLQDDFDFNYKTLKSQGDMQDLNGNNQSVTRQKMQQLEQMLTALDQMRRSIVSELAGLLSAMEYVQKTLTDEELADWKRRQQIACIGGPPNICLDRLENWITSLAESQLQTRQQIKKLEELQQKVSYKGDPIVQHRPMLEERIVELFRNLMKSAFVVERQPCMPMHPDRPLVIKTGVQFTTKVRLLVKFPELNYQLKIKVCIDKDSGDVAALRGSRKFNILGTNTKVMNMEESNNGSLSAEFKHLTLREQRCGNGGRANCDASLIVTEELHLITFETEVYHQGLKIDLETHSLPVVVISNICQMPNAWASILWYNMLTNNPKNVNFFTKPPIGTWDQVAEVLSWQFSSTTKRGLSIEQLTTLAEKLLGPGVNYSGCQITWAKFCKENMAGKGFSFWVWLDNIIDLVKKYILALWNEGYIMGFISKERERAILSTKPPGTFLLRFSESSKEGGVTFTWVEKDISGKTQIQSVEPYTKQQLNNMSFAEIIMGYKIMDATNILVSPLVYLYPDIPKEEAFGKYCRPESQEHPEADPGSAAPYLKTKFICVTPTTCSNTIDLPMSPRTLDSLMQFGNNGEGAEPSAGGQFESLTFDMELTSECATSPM
METRIC: IC50 (µM)

| QUERY SMILES | METRIC | OBSERVED VALUE |
| --- | --- | --- |
| CS(=O)(=O)Nc1ccc2cc(C(=O)Nc3cc(-c4cccs4)cc(-c4ccc(F)cc4F)c3)[nH]c2c1 | IC50 | 0.33 |

(P) CS(=O)(=O)Nc1ccc2cc(C(=O)Nc3cc(Br)cc(-c4ccc(F)cc4F)c3)sc2c1
(Q) CC(C)(c1cc(Br)cc(NC(=O)c2cc3ccc(NS(C)(=O)=O)cc3[nH]2)c1)c1cc(OC(F)(F)F)ccc1F
(R) CC(C)(c1cc(Br)cc(NC(=O)c2cc3cc(NS(C)(=O)=O)ccc3s2)c1)c1ccc(F)cc1F
(S) CC(C)Oc1cc(OC(F)(F)F)cc(C(C)(C)c2cc(Cl)cc(NC(=O)c3cc(NS(C)(=O)=O)cs3)c2)c1
# input Put the entries in order of IC50, starting with the largest number. Respond with an ordered listing of the labels, as requested.
# output S, P, R, Q
